This collection of values is drawn from paper PMC5513037.

MEASUREMENT TARGET: PIK3R4 (Homo sapiens)
Construct: endogenous in cells; host or cells: K562
Sequence (Q99570 2-1358 limits assumed): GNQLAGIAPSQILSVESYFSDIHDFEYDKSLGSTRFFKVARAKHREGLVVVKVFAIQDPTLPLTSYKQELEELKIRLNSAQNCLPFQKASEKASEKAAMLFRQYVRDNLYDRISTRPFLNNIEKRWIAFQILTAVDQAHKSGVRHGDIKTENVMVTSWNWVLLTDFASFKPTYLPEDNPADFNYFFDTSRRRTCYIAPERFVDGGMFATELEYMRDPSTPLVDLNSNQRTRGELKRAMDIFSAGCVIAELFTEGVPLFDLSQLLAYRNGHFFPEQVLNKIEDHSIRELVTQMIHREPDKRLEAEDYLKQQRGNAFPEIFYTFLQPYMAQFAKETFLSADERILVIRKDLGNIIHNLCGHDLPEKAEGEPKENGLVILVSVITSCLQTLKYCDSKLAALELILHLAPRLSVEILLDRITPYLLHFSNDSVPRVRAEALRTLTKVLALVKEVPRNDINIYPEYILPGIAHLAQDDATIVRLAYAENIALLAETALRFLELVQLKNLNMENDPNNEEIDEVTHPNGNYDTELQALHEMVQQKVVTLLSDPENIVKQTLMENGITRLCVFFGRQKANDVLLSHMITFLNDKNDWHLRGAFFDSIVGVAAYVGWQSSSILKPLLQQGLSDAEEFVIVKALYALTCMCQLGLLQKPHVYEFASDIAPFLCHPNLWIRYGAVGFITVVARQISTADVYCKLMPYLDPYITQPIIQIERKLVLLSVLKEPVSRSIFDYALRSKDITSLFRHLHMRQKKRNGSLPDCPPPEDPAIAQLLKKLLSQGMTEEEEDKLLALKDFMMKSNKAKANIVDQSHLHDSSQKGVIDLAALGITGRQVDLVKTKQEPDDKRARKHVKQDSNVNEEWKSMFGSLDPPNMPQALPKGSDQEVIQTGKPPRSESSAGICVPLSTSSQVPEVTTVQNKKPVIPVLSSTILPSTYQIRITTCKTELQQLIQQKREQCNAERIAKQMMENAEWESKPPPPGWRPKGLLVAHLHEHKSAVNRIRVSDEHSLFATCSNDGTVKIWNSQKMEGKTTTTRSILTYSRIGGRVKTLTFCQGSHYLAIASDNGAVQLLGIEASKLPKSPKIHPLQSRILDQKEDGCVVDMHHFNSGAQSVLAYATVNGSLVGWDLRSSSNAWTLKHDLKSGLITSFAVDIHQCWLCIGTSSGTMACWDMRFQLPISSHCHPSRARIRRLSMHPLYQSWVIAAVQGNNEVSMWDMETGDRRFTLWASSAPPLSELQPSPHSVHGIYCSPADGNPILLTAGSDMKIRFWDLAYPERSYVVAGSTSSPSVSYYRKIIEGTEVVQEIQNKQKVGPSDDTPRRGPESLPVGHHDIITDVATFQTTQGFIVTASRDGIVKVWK
Sequence (Q8NEB9 whole entry partner): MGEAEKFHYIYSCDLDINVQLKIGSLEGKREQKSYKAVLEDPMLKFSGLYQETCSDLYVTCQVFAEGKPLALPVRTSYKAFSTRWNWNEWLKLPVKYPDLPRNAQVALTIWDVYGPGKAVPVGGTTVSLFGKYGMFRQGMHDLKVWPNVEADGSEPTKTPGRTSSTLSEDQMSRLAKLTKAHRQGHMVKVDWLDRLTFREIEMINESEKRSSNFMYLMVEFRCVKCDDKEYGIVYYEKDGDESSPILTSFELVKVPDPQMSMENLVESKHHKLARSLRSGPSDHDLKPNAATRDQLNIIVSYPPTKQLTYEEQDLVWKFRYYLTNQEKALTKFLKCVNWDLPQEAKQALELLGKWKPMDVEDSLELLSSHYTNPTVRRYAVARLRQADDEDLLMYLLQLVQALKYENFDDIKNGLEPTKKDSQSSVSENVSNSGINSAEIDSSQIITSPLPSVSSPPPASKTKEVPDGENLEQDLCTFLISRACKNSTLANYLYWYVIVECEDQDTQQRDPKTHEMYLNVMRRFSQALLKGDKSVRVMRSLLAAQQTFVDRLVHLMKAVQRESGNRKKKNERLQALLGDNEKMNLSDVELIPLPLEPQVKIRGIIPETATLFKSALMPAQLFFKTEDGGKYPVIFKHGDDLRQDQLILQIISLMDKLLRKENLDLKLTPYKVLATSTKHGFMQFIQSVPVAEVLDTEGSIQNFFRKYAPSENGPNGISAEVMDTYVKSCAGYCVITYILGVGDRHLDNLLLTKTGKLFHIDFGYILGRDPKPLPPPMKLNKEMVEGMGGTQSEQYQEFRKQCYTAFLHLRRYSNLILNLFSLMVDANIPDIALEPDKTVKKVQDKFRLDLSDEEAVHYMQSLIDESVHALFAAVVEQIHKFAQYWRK
METHOD: Imatinib-matrix competition in K562 lysate
Type: binding
CONDITION DESCRIPTION: read-out: RB50 (the source's name)
pIC50: −log10 of the molar value.
VALUE TYPE: pIC50

### Prompt Supply reported pIC50 belonging to this compound: Cc1ccc(NC(=O)c2ccc(CN3CCN(C)CC3)cc2)cc1Nc1nccc(-c2cccnc2)n1 [Imatinib]
### Response < 5.00

====

MEASUREMENT TARGET: INSR (Homo sapiens)
Construct: endogenous in cells; host or cells: K562
Sequence (P06213 28-1382): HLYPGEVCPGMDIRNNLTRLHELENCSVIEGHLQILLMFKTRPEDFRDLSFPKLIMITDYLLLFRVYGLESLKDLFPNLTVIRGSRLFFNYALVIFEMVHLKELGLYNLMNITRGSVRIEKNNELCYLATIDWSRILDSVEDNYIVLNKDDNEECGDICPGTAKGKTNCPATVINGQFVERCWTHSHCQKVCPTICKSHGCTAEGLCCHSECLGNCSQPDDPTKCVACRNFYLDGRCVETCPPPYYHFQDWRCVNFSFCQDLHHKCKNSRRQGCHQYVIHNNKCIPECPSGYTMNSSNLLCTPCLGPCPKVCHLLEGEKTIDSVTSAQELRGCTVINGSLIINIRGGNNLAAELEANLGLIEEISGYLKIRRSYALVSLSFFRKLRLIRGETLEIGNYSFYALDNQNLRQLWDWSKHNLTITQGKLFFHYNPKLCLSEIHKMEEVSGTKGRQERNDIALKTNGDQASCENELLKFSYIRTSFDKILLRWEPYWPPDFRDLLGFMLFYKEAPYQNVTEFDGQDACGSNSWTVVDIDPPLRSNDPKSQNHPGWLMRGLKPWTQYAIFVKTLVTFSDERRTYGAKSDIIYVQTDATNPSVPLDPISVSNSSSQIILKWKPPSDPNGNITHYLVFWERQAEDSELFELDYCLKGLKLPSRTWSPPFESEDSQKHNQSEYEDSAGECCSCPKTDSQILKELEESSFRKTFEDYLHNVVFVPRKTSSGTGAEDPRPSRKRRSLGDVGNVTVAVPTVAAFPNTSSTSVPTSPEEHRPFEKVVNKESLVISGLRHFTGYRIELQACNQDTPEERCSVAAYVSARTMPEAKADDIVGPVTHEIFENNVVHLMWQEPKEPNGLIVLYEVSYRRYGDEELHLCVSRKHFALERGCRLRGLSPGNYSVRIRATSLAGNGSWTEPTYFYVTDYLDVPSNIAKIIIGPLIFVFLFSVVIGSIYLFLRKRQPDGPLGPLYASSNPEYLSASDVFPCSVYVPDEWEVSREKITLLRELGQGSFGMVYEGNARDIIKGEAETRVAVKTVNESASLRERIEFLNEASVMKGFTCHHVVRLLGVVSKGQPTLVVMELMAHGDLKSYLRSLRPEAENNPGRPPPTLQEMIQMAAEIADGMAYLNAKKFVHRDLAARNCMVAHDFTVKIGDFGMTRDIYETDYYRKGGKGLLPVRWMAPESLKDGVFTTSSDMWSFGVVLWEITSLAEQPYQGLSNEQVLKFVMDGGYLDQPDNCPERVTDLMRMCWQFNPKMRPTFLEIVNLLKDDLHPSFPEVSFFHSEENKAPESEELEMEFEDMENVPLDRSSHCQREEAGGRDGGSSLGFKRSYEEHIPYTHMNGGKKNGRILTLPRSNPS
METHOD: KAM-matrix competition in K562 lysate
Assay type: binding
CONDITION DESCRIPTION: KAM 0.001-10 uM, read-out: RB50 (the source's name)
pIC50: −log10 of the molar value.
VALUE TYPE: pIC50

### Prompt Supply reported pIC50 belonging to this molecule: N#CCc1ccc(Nc2nc(NCCCN)cc(Nc3cc(C4CC4)[nH]n3)n2)cc1 [KAM]
### Response < 5.00
